# Test system: At cytoplasmic ALT-3-01 T1 plants
# ASSAY INFO: Herbicide tolerance of Arabidopsis thaliana T1 plants, sprayed, resistance classes counted 14 days after spraying
# Format: in vivo
# PARTICULARS: sprayed at 1-fold field concentration
# Text: T1 transformants were initially selected from the background of untransformed seeds using a glufosinate selection scheme. About 40000 T1 seeds were screened, and 380 T1 positive transformants (PAT gene) were identified with a transformation efficiency of about 0.95%. […]
Entries and their Highly resistant (number of plants) values follow.
The answer should be a number; do not append a unit.

- Cc1cc(C)nc(NC(=O)NS(=O)(=O)c2ccccc2C(=O)OC2COC2)n1: 0

Consider the compound `COC(=O)c1ccc(CNS(C)(=O)=O)cc1S(=O)(=O)NC(=O)Nc1nc(OC)cc(OC)n1` and give its measured Highly resistant (number of plants).
0

Sample `COC(=O)c1ccc(I)cc1S(=O)(=O)NC(=O)Nc1nc(C)nc(OC)n1` — what was its Highly resistant (number of plants)?
0

Field request: Highly resistant (number of plants) | item: `COC(=O)c1ccccc1S(=O)(=O)NC(=O)N(C)c1nc(C)nc(OC)n1`
22

FYI, the data here is from patent US20190029252A1.
